System: THRa homodimer (NR concentration 90 nM)
Experiment: PBM binding z-score (relative to random genomic background probes); higher = stronger binding; sequences stand for … in GC…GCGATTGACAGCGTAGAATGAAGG
Hi there, I'd appreciate the recorded PBM binding z-score for every entry that follows.
Lab note: jot the number down without any unit.

GET /value?item= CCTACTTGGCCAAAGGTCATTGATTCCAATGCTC &field=PBM binding z-score returns 1.25

Record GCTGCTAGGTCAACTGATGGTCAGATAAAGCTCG . Reported PBM binding z-score: 1.07

Looking up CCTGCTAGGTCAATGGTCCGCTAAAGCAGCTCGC , I see its PBM binding z-score listed as 0.549

GET /value?item= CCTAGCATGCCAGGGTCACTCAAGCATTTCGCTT &field=PBM binding z-score returns 1.01

Reported PBM binding z-score for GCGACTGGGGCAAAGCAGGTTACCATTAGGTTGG was -0.429

Noted for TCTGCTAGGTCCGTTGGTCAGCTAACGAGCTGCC : its PBM binding z-score reads -1.13

sequence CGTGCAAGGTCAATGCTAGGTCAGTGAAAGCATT , PBM binding z-score observed: 2.44

# sequence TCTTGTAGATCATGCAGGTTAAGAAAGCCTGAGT ; its PBM binding z-score = -0.0439

Reported PBM binding z-score of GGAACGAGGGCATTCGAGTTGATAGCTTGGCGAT : -0.698

Per the records, this sequence ( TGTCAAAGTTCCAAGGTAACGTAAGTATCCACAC ) has PBM binding z-score equal to 1.09

The recorded PBM binding z-score for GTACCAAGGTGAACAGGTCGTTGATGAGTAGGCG is 0.534

Consider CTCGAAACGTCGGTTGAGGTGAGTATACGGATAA . Its measured PBM binding z-score is 1.2
